Literature compilation of Ki measurements on Beta-secretase 1 (Homo sapiens, UniProt P56817).
value-kind: Ki (nM)

In [3]: df
Out[3]:
                                smiles_text  value_kind  value_measured
0  CN1C(=N)N[C@@]2(c3cc(NC(=O)c4ncc(Cl)cc4F)ccc3F)CCC[C@H]2S1(=O)=O          Ki               4
1  CN1C(=N)N[C@](C)(c2sc3c(-c4ccc(-c5ccoc5)cc4F)nccc3c2Cl)CS1(=O)=O          Ki            19.7
2  CN1C(=N)N[C@](C)(c2sc(-c3nnc(-c4ccon4)o3)cc2Cl)CS1(=O)=O          Ki            1340

[P] Cn1cc(Cl)c(C(=O)Nc2ccc3c(c2)[C@]2(CCC3)CS(=O)(=O)C(C)(C)C(=N)N2)n1
[Q] COc1cnc(C(=O)Nc2ccc3c(c2)[C@]2(COC3)CS(=O)(=O)C(C)(C)C(=N)N2)c(C)c1
[R] CC1(C)C(=N)N[C@@]2(COCc3ccc(NC(=O)c4cnc(OCC(F)(F)F)cn4)cc32)CS1(=O)=O
[S] Cc1cc(C(=O)Nc2ccc(F)c([C@@]3(C)NC(=N)N(C)S(=O)(=O)C34CC4)c2)no1
[T] CN1C(=N)N[C@](C)(c2sc(-c3nnc(-c4ccc(Cl)cc4)o3)cc2Cl)CS1(=O)=O
Task item: Hey, quick one: sort these by Ki, largest value first please. Dear reader, please state the labels in the requested order.
Reply: S, R, Q, T, P
